target: T1, COVID S1 RBM Fc fusion (Antigen 2) (SARS-CoV-2, UniProt P0DTC2 437-508); assay: phage ELISA
T1 construct: domain: RBM
Consider the following binders; for each one, report its specificity ELISA, fold over background.
Give your result in fold over background as a bare value.

specificity ELISA, fold over background lookup needed for SARS-CoV-2 variant 1-7 (antibody, V domains shown) VH: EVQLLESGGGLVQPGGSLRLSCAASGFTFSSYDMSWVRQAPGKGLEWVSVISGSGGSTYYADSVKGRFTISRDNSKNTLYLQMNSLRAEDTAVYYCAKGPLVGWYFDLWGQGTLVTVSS VL: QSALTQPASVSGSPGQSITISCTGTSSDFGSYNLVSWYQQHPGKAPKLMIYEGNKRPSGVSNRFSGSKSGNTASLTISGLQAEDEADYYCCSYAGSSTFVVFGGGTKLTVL , thanks.
1.6

specificity ELISA, fold over background for SARS-CoV-2 variant 1-2 (antibody, V domains shown) VH: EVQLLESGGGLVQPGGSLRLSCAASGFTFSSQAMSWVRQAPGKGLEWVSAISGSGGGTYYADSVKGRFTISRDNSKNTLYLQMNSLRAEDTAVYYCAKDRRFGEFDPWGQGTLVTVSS VL: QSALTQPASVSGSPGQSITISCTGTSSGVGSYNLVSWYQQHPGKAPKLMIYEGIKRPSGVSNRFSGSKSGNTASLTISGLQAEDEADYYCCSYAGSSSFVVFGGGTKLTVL ?
1.7

Any idea what specificity ELISA, fold over background was measured for SARS-CoV-2 variant 1-27 (antibody, V domains shown) VH: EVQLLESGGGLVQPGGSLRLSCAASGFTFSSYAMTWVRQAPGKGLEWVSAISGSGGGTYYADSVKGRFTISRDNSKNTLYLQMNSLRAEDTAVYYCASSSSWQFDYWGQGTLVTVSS VL: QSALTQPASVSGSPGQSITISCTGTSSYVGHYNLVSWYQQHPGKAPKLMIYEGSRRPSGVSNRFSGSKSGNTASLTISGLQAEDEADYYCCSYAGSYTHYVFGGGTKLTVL ?
1.6

Which specificity ELISA, fold over background value is on record for SARS-CoV-2 variant 1-38 (antibody, V domains shown) VH: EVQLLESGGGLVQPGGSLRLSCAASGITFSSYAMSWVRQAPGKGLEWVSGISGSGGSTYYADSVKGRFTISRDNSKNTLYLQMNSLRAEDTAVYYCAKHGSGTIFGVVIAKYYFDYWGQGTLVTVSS VL: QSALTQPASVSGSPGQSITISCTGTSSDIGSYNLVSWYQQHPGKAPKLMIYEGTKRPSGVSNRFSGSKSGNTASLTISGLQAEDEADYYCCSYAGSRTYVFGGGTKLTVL ?
1.2

Look at this binder and give its reported specificity ELISA, fold over background. SARS-CoV-2 variant 1-29 (antibody, V domains shown) VH: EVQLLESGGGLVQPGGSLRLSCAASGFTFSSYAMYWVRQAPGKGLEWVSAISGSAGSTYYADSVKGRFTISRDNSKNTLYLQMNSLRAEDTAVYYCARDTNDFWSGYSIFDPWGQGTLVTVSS VL: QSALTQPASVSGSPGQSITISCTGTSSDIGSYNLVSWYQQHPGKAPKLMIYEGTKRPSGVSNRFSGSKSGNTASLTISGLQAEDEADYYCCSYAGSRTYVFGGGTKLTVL
0.9

// specificity ELISA, fold over background lookup, key: SARS-CoV-2 variant 1-33 (antibody, V domains shown) VH: EVQLLESGGGLVQPGGSLRLSCAASGFTFSSYAMIWVRQAPGKGLEWVSAISGSGGSTFYADSVKGRFTISRDNSKNTLYLQMNSLRAEDTAVYYCTRPPYGDYGDYWGQGTLVTVSS VL: QSALTQPASVSGSPGQSITISCTGTSSDVGSYNLLSWYQQHPGKAPKLMIYEASKRPSGVSNRFSGSKSGNTASLTISGLQAEDEADYYCCSYAGSRTPVVFGGGTKLTVL
1
